Values compiled from paper PMC5490379.

# assay-notes: Mouse liver microsomal assay
# Assay type: in vitro ADME
# cond: liver microsomes
measure-name: half-life at 1 μM (min)
Please state the figure in min; there is no need to write the unit.

What value of half-life at 1 μM has been recorded for this entry: O=C(NCCN1CCCCC1)c1cc(Br)ccc1OCCF [Compound 3a] 5.94
